B1: library; a variant is named by its letters at N, in order (parent)
chain: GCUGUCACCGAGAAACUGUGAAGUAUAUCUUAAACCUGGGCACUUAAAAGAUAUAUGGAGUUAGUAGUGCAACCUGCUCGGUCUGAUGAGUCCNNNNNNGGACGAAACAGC

variants of: B1; assay: normalized RNA/DNA level with ligand (relative to sTRSVctl = 100) (log10 (% of sTRSVctl)); HEK293T; ligand: cyclic di-GMP (c-di-GMP-II aptamer); ligand concentration (+) RNA-Seq: 1 mM; higher = less ribozyme self-cleavage, higher mRNA level; conditions: reporter: mCherry (pCS4076), ligand present: yes
Measured quantity: normalized RNA/DNA level with ligand (log10)
API note: the answer field is a bare number with no unit suffix.

>>> data_value("GCUGUCACCGAGAAACUGUGAAGUAUAUCUUAAACCUGGGCACUUAAAAGAUAUAUGGAGUUAGUAGUGCAACCUGCUCGGUCUGAUGAGUCCCGCUGCGGACGAAACAGC [CGCUGC]")
1.9
>>> data_value("GCUGUCACCGAGAAACUGUGAAGUAUAUCUUAAACCUGGGCACUUAAAAGAUAUAUGGAGUUAGUAGUGCAACCUGCUCGGUCUGAUGAGUCCCUACGGGGACGAAACAGC [CUACGG]")
1.89
>>> data_value("GCUGUCACCGAGAAACUGUGAAGUAUAUCUUAAACCUGGGCACUUAAAAGAUAUAUGGAGUUAGUAGUGCAACCUGCUCGGUCUGAUGAGUCCACCCAUGGACGAAACAGC [ACCCAU]")
1.79
>>> data_value("GCUGUCACCGAGAAACUGUGAAGUAUAUCUUAAACCUGGGCACUUAAAAGAUAUAUGGAGUUAGUAGUGCAACCUGCUCGGUCUGAUGAGUCCGGCGGCGGACGAAACAGC [GGCGGC]")
1.89
>>> data_value("GCUGUCACCGAGAAACUGUGAAGUAUAUCUUAAACCUGGGCACUUAAAAGAUAUAUGGAGUUAGUAGUGCAACCUGCUCGGUCUGAUGAGUCCUGAUGCGGACGAAACAGC [UGAUGC]")
1.84

Task item: Tell me normalized RNA/DNA level with ligand (log10) reported for GCUGUCACCGAGAAACUGUGAAGUAUAUCUUAAACCUGGGCACUUAAAAGAUAUAUGGAGUUAGUAGUGCAACCUGCUCGGUCUGAUGAGUCCCGUAACGGACGAAACAGC [CGUAAC]
Reply: 1.72

Task item: Tell me normalized RNA/DNA level with ligand (log10) reported for GCUGUCACCGAGAAACUGUGAAGUAUAUCUUAAACCUGGGCACUUAAAAGAUAUAUGGAGUUAGUAGUGCAACCUGCUCGGUCUGAUGAGUCCGGACACGGACGAAACAGC [GGACAC]
Reply: 1.84

Task item: Tell me normalized RNA/DNA level with ligand (log10) reported for GCUGUCACCGAGAAACUGUGAAGUAUAUCUUAAACCUGGGCACUUAAAAGAUAUAUGGAGUUAGUAGUGCAACCUGCUCGGUCUGAUGAGUCCGCGGAAGGACGAAACAGC [GCGGAA]
Reply: 1.54

Task item: Tell me normalized RNA/DNA level with ligand (log10) reported for GCUGUCACCGAGAAACUGUGAAGUAUAUCUUAAACCUGGGCACUUAAAAGAUAUAUGGAGUUAGUAGUGCAACCUGCUCGGUCUGAUGAGUCCCGUGAUGGACGAAACAGC [CGUGAU]
Reply: 1.69

Task item: Tell me normalized RNA/DNA level with ligand (log10) reported for GCUGUCACCGAGAAACUGUGAAGUAUAUCUUAAACCUGGGCACUUAAAAGAUAUAUGGAGUUAGUAGUGCAACCUGCUCGGUCUGAUGAGUCCUAGGAUGGACGAAACAGC [UAGGAU]
Reply: 1.76

Task item: Tell me normalized RNA/DNA level with ligand (log10) reported for GCUGUCACCGAGAAACUGUGAAGUAUAUCUUAAACCUGGGCACUUAAAAGAUAUAUGGAGUUAGUAGUGCAACCUGCUCGGUCUGAUGAGUCCGAUCAUGGACGAAACAGC [GAUCAU]
Reply: 1.79

Task item: Tell me normalized RNA/DNA level with ligand (log10) reported for GCUGUCACCGAGAAACUGUGAAGUAUAUCUUAAACCUGGGCACUUAAAAGAUAUAUGGAGUUAGUAGUGCAACCUGCUCGGUCUGAUGAGUCCGACAGGGGACGAAACAGC [GACAGG]
Reply: 1.85

Task item: Tell me normalized RNA/DNA level with ligand (log10) reported for GCUGUCACCGAGAAACUGUGAAGUAUAUCUUAAACCUGGGCACUUAAAAGAUAUAUGGAGUUAGUAGUGCAACCUGCUCGGUCUGAUGAGUCCUGCAGUGGACGAAACAGC [UGCAGU]
Reply: 1.83

Task item: Tell me normalized RNA/DNA level with ligand (log10) reported for GCUGUCACCGAGAAACUGUGAAGUAUAUCUUAAACCUGGGCACUUAAAAGAUAUAUGGAGUUAGUAGUGCAACCUGCUCGGUCUGAUGAGUCCUCUACUGGACGAAACAGC [UCUACU]
Reply: 1.82

Task item: Tell me normalized RNA/DNA level with ligand (log10) reported for GCUGUCACCGAGAAACUGUGAAGUAUAUCUUAAACCUGGGCACUUAAAAGAUAUAUGGAGUUAGUAGUGCAACCUGCUCGGUCUGAUGAGUCCUUGUAGGGACGAAACAGC [UUGUAG]
Reply: 1.83

Task item: Tell me normalized RNA/DNA level with ligand (log10) reported for GCUGUCACCGAGAAACUGUGAAGUAUAUCUUAAACCUGGGCACUUAAAAGAUAUAUGGAGUUAGUAGUGCAACCUGCUCGGUCUGAUGAGUCCUGAUUGGGACGAAACAGC [UGAUUG]
Reply: 1.88

Task item: Tell me normalized RNA/DNA level with ligand (log10) reported for GCUGUCACCGAGAAACUGUGAAGUAUAUCUUAAACCUGGGCACUUAAAAGAUAUAUGGAGUUAGUAGUGCAACCUGCUCGGUCUGAUGAGUCCCCUUAUGGACGAAACAGC [CCUUAU]
Reply: 1.79

Task item: Tell me normalized RNA/DNA level with ligand (log10) reported for GCUGUCACCGAGAAACUGUGAAGUAUAUCUUAAACCUGGGCACUUAAAAGAUAUAUGGAGUUAGUAGUGCAACCUGCUCGGUCUGAUGAGUCCCGCAUGGGACGAAACAGC [CGCAUG]
Reply: 1.8

Task item: Tell me normalized RNA/DNA level with ligand (log10) reported for GCUGUCACCGAGAAACUGUGAAGUAUAUCUUAAACCUGGGCACUUAAAAGAUAUAUGGAGUUAGUAGUGCAACCUGCUCGGUCUGAUGAGUCCUAGUAUGGACGAAACAGC [UAGUAU]
Reply: 1.78

Task item: Tell me normalized RNA/DNA level with ligand (log10) reported for GCUGUCACCGAGAAACUGUGAAGUAUAUCUUAAACCUGGGCACUUAAAAGAUAUAUGGAGUUAGUAGUGCAACCUGCUCGGUCUGAUGAGUCCUGUUCGGGACGAAACAGC [UGUUCG]
Reply: 1.89

Task item: Tell me normalized RNA/DNA level with ligand (log10) reported for GCUGUCACCGAGAAACUGUGAAGUAUAUCUUAAACCUGGGCACUUAAAAGAUAUAUGGAGUUAGUAGUGCAACCUGCUCGGUCUGAUGAGUCCUACGUGGGACGAAACAGC [UACGUG]
Reply: 1.85

Task item: Tell me normalized RNA/DNA level with ligand (log10) reported for GCUGUCACCGAGAAACUGUGAAGUAUAUCUUAAACCUGGGCACUUAAAAGAUAUAUGGAGUUAGUAGUGCAACCUGCUCGGUCUGAUGAGUCCGGGAUUGGACGAAACAGC [GGGAUU]
Reply: 1.77

Attribution: the supplement of paper PMC6757056
